# Method description: Toxicity liver stage against HepG2, at 10uM
# Assay type: cell-based
# Set-up: test concentration 10 uM, cell line HepG2-A16-CD81EGFP
# Details: human, HepG2-A16-CD81EGFP cells; read-out: INHIBITION
Measured metric: cytotoxicity at 10 µM (%)
Reply with just the number (in %).

Recorded results for 2 compounds are shown here.
[
  {
    "Compound": "O=C(CCc1cc(O)no1)N1CCCC(COc2ccccc2F)C1 (stereo unspecified)",
    "cytotoxicity at 10 µM (%)": 0.296
  },
  {
    "Compound": "O=C1c2cccnc2OC(CN2CCOCC2)CN1C1CCC1 (stereo unspecified)",
    "cytotoxicity at 10 µM (%)": -4.18
  }
]

Lookup: # lookup: cytotoxicity at 10 µM of Cc1cc(C)n(-c2ccc(NCCNS(=O)(=O)c3ccccc3)nn2)n1
Found: -0.771

Lookup: Entry CC(=O)N1CCCN(C(=O)CCc2c(C)noc2C)CC1 has what cytotoxicity at 10 µM?
Found: -6.38

Lookup: # cytotoxicity at 10 µM lookup, item COCCN1CCC(CN(C)c2nc3c(s2)c(C)nn3C)C1 (stereo unspecified)
Found: -4.36

Lookup: Data request, read-out cytotoxicity at 10 µM, for CC(C)C1CN(C(=O)c2cccs2)CCS1 (stereo unspecified)
Found: 1.24

Lookup: Which measured cytotoxicity at 10 µM value corresponds to CS(=O)(=O)NC[C@]12COC[C@H]1CN(CC1CCCC1)C2 ?
Found: 1.52

Lookup: Requested read-out: cytotoxicity at 10 µM. Entry: CO[C@H]1CCN(S(=O)(=O)c2cn(C)cn2)[C@H]1Cc1cccnc1
Found: -9.31

Lookup: Report cytotoxicity at 10 µM for CN(C)C(=O)CN1CCC2(CC1)COc1ccccc1S(=O)(=O)N(C)C2 please.
Found: -0.259

###

# Method description: Toxicity liver stage against HepG2, at 10uM
# Type: cell-based
# Set-up: test concentration 10 uM, cell line HepG2-A16-CD81EGFP
# Details: human, HepG2-A16-CD81EGFP cells; read-out: INHIBITION
Below, each entry is listed alongside its reported cytotoxicity at 10 µM.
Give the quantity in %, number only.

[
  {
    "Compound": "O=C(O)c1cc(-c2ccc3c(c2)OCO3)cc(S(=O)(=O)NC2CC2)c1",
    "Value measured": 2.8
  },
  {
    "Compound": "CC(C)C1=NOC2(CCN(S(C)(=O)=O)CC2)C1",
    "Value measured": 6.47
  },
  {
    "Compound": "O=C(Cn1cccn1)N1CCC(Cn2cc(-c3ccsc3)nn2)CC1",
    "Value measured": -0.554
  },
  {
    "Compound": "COCCCC1CCCCN1Cc1cnn(C)c1C1CC1 (stereo not drawn)",
    "Value measured": -2.52
  },
  {
    "Compound": "O=C(CC1CCCC1)N1CCN2C[C@@H](CO)[C@H](c3ccccc3)[C@H]2C1",
    "Value measured": -4.73
  }
]

Lookup: Which cytotoxicity at 10 µM is reported for this compound? Cc1occc1C(=O)N1CCC2(CCC(C(=O)NCC3CC3)O2)CC1 (stereo not drawn)
Found: 9.53

Lookup: What cytotoxicity at 10 µM value was documented for this compound, COc1ccc(CN2CCN(C(=O)c3ccc(C)n3C)CC2)cc1 ?
Found: -0.0113

Lookup: Item COc1c(C2CCCN2Cc2noc(C)n2)c(C)nn1C (stereo not drawn) has what recorded cytotoxicity at 10 µM?
Found: -12.5

Lookup: cytotoxicity at 10 µM lookup needed for OCc1cc2ccccc2nc1NCC1(O)CCC1 , thanks.
Found: -46.9

Lookup: If you can, please state the reported cytotoxicity at 10 µM value of CCN(C(=O)c1ccc2nnc(C3CCN(C(C)=O)C3)n2c1)C(C)C (stereo not drawn) .
Found: -107

###

Documented cytotoxicity at 10 µM across a set of compounds
# Method description: Toxicity liver stage against HepG2, at 10uM
# Assay type: cell-based
# Set-up: test concentration 10 uM, cell line HepG2-A16-CD81EGFP
# Details: human, HepG2-A16-CD81EGFP cells; read-out: INHIBITION
Just the number in %, nothing appended.

Some entries whose results are on file:
[
  {
    "Compound": "CCc1cc(C(F)(F)F)c2c(C)nn(CC(=O)O)c2n1",
    "cytotoxicity at 10 µM [%]": 0.77
  },
  {
    "Compound": "O=C(NCCc1nncn1C1CC1)c1cc2ccccn2c1",
    "cytotoxicity at 10 µM [%]": -1.87
  },
  {
    "Compound": "CC(NC(=O)NCc1ccccn1)c1ccc2c(c1)CCC(=O)N2 (centres undefined)",
    "cytotoxicity at 10 µM [%]": 7.47
  },
  {
    "Compound": "CC(NC(=O)N1CCc2ccccc21)c1nncn1C (centres undefined)",
    "cytotoxicity at 10 µM [%]": -5.3
  },
  {
    "Compound": "Cc1oc(-c2ccco2)nc1CC(=O)N1CCC(C(O)C(F)(F)F)CC1 (centres undefined)",
    "cytotoxicity at 10 µM [%]": -5.25
  }
]

Lookup: What value of cytotoxicity at 10 µM has been reported for the following compound? CC(C)NC(=O)c1nn(C)c(NC(=O)Cc2ccccc2)c1F
Found: -1.73

Lookup: Look at this compound and give its reported cytotoxicity at 10 µM. CCC(CC)C(=O)NCCC(=O)N1CCN(c2ccccn2)CC1
Found: 4.65

Lookup: What value of cytotoxicity at 10 µM has been reported for the following compound? O=C1COc2cc(C(=O)NS(=O)(=O)c3ccc(F)cc3)ccc2N1
Found: -8.47

Lookup: Find the recorded cytotoxicity at 10 µM belonging to Cc1cnn(C2CCCN(C(=O)c3sccc3-n3cnnn3)C2)c1 (centres undefined) and report it.
Found: -8.72

Lookup: What does the data say about its cytotoxicity at 10 µM? Entry: CN(C)CCN1C(=O)CCC12CCN(Cc1cccs1)CC2
Found: 3.88

Lookup: Form field: reported cytotoxicity at 10 µM of COCCN(Cc1ccc(C)cc1)Cc1c[nH]cn1
Found: -42.3

Lookup: Item NC(=O)CC1CCN(C(=O)NCc2ccc(-c3ccn[nH]3)cc2)CC1 has what recorded cytotoxicity at 10 µM?
Found: -2.38

Lookup: Form field: reported cytotoxicity at 10 µM of CCOc1ccc(CN(CCOC)c2nc(C)nc3oc(C)nc23)cc1
Found: -30.2

Lookup: # query: cytotoxicity at 10 µM of entry Cn1cncc1CN1CCCC1c1cncc(Oc2ccc(Cl)cc2)n1 (centres undefined)
Found: 11

Lookup: // lookup cytotoxicity at 10 µM for COc1ncnc(N(C)C)c1NC(=O)Cc1c[nH]c2ccc(F)cc12
Found: -4.2

Lookup: Requested field: cytotoxicity at 10 µM. Item: CN1C(=O)CCCC12CCCN(Cc1nccs1)C2 (centres undefined)
Found: 11.4

###

As shown below, each of these compounds has a reported cytotoxicity at 10 µM value.
# Method description: Toxicity liver stage against HepG2, at 10uM
# Format: cell-based
# Parameters: test concentration 10 uM, cell line HepG2-A16-CD81EGFP
# Details: human, HepG2-A16-CD81EGFP cells; read-out: INHIBITION
Please give a number only; it is taken to be in %.

Reference set, count: 5
[
  {
    "Compound": "Fc1ccc(Cn2ncc3c2CN(c2noc(C4CC4)n2)C3)cc1",
    "cytotoxicity at 10 µM [%]": -2.76
  },
  {
    "Compound": "CCC1(CC)C(=O)NC(=O)N/C1=N/c1cccc(OC)c1",
    "cytotoxicity at 10 µM [%]": -51.8
  },
  {
    "Compound": "COc1ncc(-c2c(C#N)c(N)nc3c2CCc2[nH]ccc2-3)cn1",
    "cytotoxicity at 10 µM [%]": 6.47
  },
  {
    "Compound": "CCNC(=O)Nc1ccc2c(ccn2CC(=O)N(CC)CC)c1",
    "cytotoxicity at 10 µM [%]": -0.421
  },
  {
    "Compound": "c1ccc(-c2nnc3sc(CCN4CCCC4)nn23)cc1",
    "cytotoxicity at 10 µM [%]": 6.04
  }
]

Moving on to another compound below.
Lookup: Reported cytotoxicity at 10 µM for Cc1cc(-c2cnn(CCNC(=O)c3cccnc3)c2C2CC2)on1 : what is it?
Found: 0.565

###

# Method description: Toxicity liver stage against HepG2, at 10uM
# Format: cell-based
# Set-up: test concentration 10 uM, cell line HepG2-A16-CD81EGFP
# Details: human, HepG2-A16-CD81EGFP cells; read-out: INHIBITION
Measured metric: cytotoxicity at 10 µM
Just the number plus its unit, please.

[
  {
    "Compound": "CCCS(=O)(=O)N1C[C@@H](Oc2ncccc2F)[C@H]2OCCC[C@H]21",
    "Measured metric": "cytotoxicity at 10 µM",
    "Value measured": "2.95%"
  },
  {
    "Compound": "CNC(=O)COC1COC2(CCN(c3ncccn3)CC2)C1 (stereo not drawn)",
    "Measured metric": "cytotoxicity at 10 µM",
    "Value measured": "-3.4%"
  }
]

Let's switch to this compound now.
Lookup: If you can, please state the reported cytotoxicity at 10 µM value of COc1ccccc1CCC(=O)N1C[C@H](c2ccccc2)[C@@H](N)C1 .
Found: -3.79%

Provenance of the data: ChEMBL document CHEMBL4513216
